# TARGET_DESC: PKC isoenzyme δ (Homo sapiens)
# Construct: made in house; host or cells: baculovirus-insect cell expression system
# Sequence (Q05655 whole entry): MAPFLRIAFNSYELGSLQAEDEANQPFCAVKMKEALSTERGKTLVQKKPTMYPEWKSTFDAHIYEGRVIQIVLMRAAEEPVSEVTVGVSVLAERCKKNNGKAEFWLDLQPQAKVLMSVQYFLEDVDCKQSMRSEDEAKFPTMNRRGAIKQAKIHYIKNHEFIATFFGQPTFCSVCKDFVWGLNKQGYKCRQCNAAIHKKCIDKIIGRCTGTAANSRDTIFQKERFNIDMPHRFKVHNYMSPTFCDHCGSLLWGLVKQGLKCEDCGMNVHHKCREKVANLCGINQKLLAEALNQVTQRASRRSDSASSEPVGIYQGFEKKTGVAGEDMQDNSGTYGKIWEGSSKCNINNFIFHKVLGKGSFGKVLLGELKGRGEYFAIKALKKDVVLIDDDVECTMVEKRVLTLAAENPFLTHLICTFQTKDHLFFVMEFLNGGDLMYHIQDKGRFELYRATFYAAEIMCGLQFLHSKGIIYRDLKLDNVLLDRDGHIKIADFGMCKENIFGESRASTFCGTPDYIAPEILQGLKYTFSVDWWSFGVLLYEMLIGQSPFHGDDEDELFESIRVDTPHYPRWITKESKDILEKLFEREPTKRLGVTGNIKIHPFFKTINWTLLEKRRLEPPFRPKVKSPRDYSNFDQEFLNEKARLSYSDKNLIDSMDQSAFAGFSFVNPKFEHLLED
# ASSAY_NOTES: Protein kinase C inhibition assay, PKC isoenzyme δ
# Type: biochemical
# EXPERIMENTAL_PARAMETERS: read-out: IC50 PKC δ
pIC50: −log10 of the molar value.

MOLECULE | RELATION_SYMBOL | pIC50
O=C1C(Nc2ccc(S(=O)(=O)NCc3ccccn3)cc2)=CC(=Nc2ccc(S(=O)(=O)NCc3ccccn3)cc2)c2ccccc21 | < | 3.82
COc1cnc(NS(=O)(=O)c2ccc(N=C3C=C(Nc4ccc(S(=O)(=O)Nc5ncc(OC)cn5)cc4)C(=O)c4ccccc43)cc2)nc1 [Compound 3h] | = | 4.24
COc1cc(NS(=O)(=O)c2ccc(N=C3C=C(Nc4ccc(S(=O)(=O)Nc5cc(OC)nc(OC)n5)cc4)C(=O)c4ccccc43)cc2)nc(OC)n1 [Compound 6g] | < | 3.82
Cc1cc(C)nc(NC(=O)c2ccc(N=C3C=C(Nc4ccc(C(=O)Nc5nc(C)cc(C)n5)cc4)C(=O)c4ccccc43)cc2)n1 | < | 3.82
O=C1C(Nc2ccc(S(=O)(=O)Nc3ccccn3)cc2)=CC(=Nc2ccc(S(=O)(=O)Nc3ccccn3)cc2)c2ccccc21 [Compound 3i] | = | 4.43
O=C1C(Nc2ccc(S(=O)(=O)Nc3cnc4ccccc4n3)cc2)=CC(=Nc2ccc(S(=O)(=O)Nc3cnc4ccccc4n3)cc2)c2ccccc21 [Compound 3m] | = | 3.91
O=C1C(Nc2ccc(S(=O)(=O)Nc3ccc(Cl)nn3)cc2)=CC(=Nc2ccc(S(=O)(=O)Nc3ccc(Cl)nn3)cc2)c2ccccc21 [Compound 3l] | = | 4.11
Cc1ccnc(NS(=O)(=O)c2ccc(N=C3C=C(Nc4ccc(S(=O)(=O)Nc5nccc(C)n5)cc4)C(=O)c4ccccc43)cc2)n1 [Compound 3f] | = | 4.07
Cc1cc(C)nc(NS(=O)(=O)c2cc(N=C3C=C(Nc4ccc(C)c(S(=O)(=O)Nc5cc(C)cc(C)n5)c4)C(=O)c4ccccc43)ccc2C)c1 [Compound 3ag] | = | 4.52
Cc1cc(NS(=O)(=O)c2ccc(N=C3C=C(Nc4ccc(S(=O)(=O)Nc5cc(C)nc(C)n5)cc4)C(=O)c4ccccc43)cc2)nc(C)n1 [Compound 6d] | = | 4.33
O=C1C(Nc2ccc(S(=O)(=O)Nc3ncccn3)cc2)=CC(=Nc2ccc(S(=O)(=O)Nc3ncccn3)cc2)c2ccccc21 | < | 3.82
COc1ccc(NS(=O)(=O)c2ccc(N=C3C=C(Nc4ccc(S(=O)(=O)Nc5ccc(OC)nn5)cc4)C(=O)c4ccccc43)cc2)nn1 [Compound 3j] | = | 4.77
